# Test system: L. amazonensis
# experimentNotes: Leishmania growth inhibition assay in bone marrow-derived macrophages (L. amazonensis)
# Assay type: cell-based
# conditionLabel: Leishmania amazonensis, Macrophage, 72 h; macrophages, 3 days; read-out: estimated IC50 against intracellular L. amazonensis
# Description: Adherent bone marrow-derived macrophages were harvested in cold DMEM+0.5 mM EDTA and seeded into an 8-well Lab-Tek II chambered coverglass (Nalge Nunc International, Naperville, IL) at a concentration of 50,000 cells/chamber 24 h before being used for infections. […]
assayReadout: IC50

| smilesString | assayReadout | result |
| --- | --- | --- |
| O=C(Cn1cnc([N+](=O)[O-])n1)Nc1cc(Oc2cccc(C(F)(F)F)c2)cc([N+](=O)[O-])c1 | IC50 | ~500 nM |

Ask: What value of IC50 has been recorded for this entry: Cc1cc(OCCCCCCn2ccnc2)cc(C)c1Cl
Reply: ~500 nM

Ask: Also O=C(NN=Cc1ccc(-c2cccc(Cl)c2Cl)o1)c1ccccn1 ?
Reply: ~100 nM

###

Reported IC50 values for a set of compounds
# Test system: T. cruzi (Tulahuen strain) expressing β-galactosidase
# experimentNotes: T. cruzi growth inhibition assay (β-gal activity, infection of NIH/3T3 cells)
# Format: cell-based, Trypanosoma cruzi
# conditionLabel: Trypanosoma cruzi, TULAHUEN, NIH3T3, 96 h, β-gal T. cruzi Tulahuen, 50.000 NIH/3T3 cells and parasites (MOI 1:1), 4 days; read-out: IC50 Intracellular growth
# value in µM; strip the unit string

| compound | measuredTarget | IC50 / µM |
| --- | --- | --- |
| Cc1cc(Cl)cc(C)c1OCCCCn1ccnc1 [CX6] | T. cruzi (Tulahuen strain) expressing β-galactosidase | 0.0716 |
| O=C(CCCn1cnc([N+](=O)[O-])n1)Nc1ccccc1C(F)(F)F [NT9] | T. cruzi (Tulahuen strain) expressing β-galactosidase | 3.02 |
| O=C(Cn1cnc([N+](=O)[O-])n1)Nc1cc(C(F)(F)F)ccc1Cl [NT6] | T. cruzi (Tulahuen strain) expressing β-galactosidase | 1.13 |

Ask: What value of IC50 has been recorded for this entry: O=C(NN=Cc1ccc(-c2cccc(Cl)c2Cl)o1)c1cccnc1 [PCH2]
Reply: 1.93

Ask: Also O=C(Cn1cnc([N+](=O)[O-])n1)Nc1ccc(Cl)cc1C(F)(F)F [NT7] ?
Reply: 1.29

Ask: Also COc1ccc(-c2ccc(C=NNC(=O)c3ccccn3)o2)cc1Cl [PCH8] ?
Reply: 1.68

Ask: Also Cc1cc(Cl)cc(C)c1OCCCCCCn1ccnc1 [CX4] ?
Reply: 0.3

Ask: Also O=C(NN=Cc1ccc(-c2ccccc2Cl)o1)c1ccccn1 [PCH6] ?
Reply: 0.002

Ask: Also O=C(NN=Cc1ccc(-c2ccc(Cl)c(Cl)c2)o1)c1ccccn1 [PCH7] ?
Reply: 0.035

Attribution: paper PMC2639639
